Entries and their Heterodimer yields, BB Homodimer (CH3B:CH3B) (Fc)2 values follow.
method: co-expression in HEK293F, protein A purification, non-reducing SDS-PAGE, band density (ImageJ); mean ± S.E.M.
propertyName: Heterodimer yields, BB Homodimer (CH3B:CH3B) (Fc)2 (%)

{"protein": "dummy-Fc heavy chain constant region with CH3B of mutant EEW-RVT (Q347R/D399V/F405T) (protein) TCPPCPAPELLGGPSVFLFPPKPKDTLMISRTPEVTCVVVDVSHEDPEVKFNWYVDGVEVHNAKTKPREEQYNSTYRVVSVLTVLHQDWLNGKEYKCKVSNKALPAPIEKTISKAKGQPREPRVYTLPPSRDELTKNQVSLTCLVKGFYPSDIAVEWESNGQPENNYKTTPPVLVSDGSFTLYSKLTVDKSRWQQGNVFSCSVMHEALHNHYTQKSLSLSPGK", "unitString": "%", "observed": 6.3}
{"protein": "dummy-Fc heavy chain constant region with CH3B of mutant EW-RVT (Q347R/D399V/F405T) (protein) TCPPCPAPELLGGPSVFLFPPKPKDTLMISRTPEVTCVVVDVSHEDPEVKFNWYVDGVEVHNAKTKPREEQYNSTYRVVSVLTVLHQDWLNGKEYKCKVSNKALPAPIEKTISKAKGQPREPRVYTLPPSRDELTKNQVSLTCLVKGFYPSDIAVEWESNGQPENNYKTTPPVLVSDGSFTLYSKLTVDKSRWQQGNVFSCSVMHEALHNHYTQKSLSLSPGK", "unitString": "%", "observed": 1.6}
